Entry source: paper PMC5540273

Measured %Inh by item
Test system: TGFBR2
setup-conditions: concentration: 1 μM,replicates: in singlicate; n = 1;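 note: KINOMEscan kinase panel screen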
Numeric only. Scale: %

Recorded results for 2 compounds are shown here.
INSERT INTO assay_data (compound, assay_target, recorded_endpoint, recorded_result) VALUES
  ('C[C@@H]1CCN(C(=O)N2CCCC2)C[C@@H]1N(C)c1ncnc2[nH]ccc12', 'TGFBR2', '%Inh', 0),
  ('CCOC(=O)N1CCC(n2cnc(-c3ccc(F)cc3)c2-c2ccnc(N)n2)CC1 [SB-219952]', 'TGFBR2', '%Inh', 10);

**Q:** Using the record for Cn1cc(-c2cccc3c(N)c(C(N)=O)nnc23)cn1 , report its %Inh.
**A:** 16

**Q:** Here is the next compound: OCCn1cc(-c2cnc3nnn(Cc4ccc5ncccc5c4)c3n2)cn1
**A:** 0

**Q:** // query: O=C(Nc1cccc(C(F)(F)F)c1)c1cccc(Oc2ccc3nccn3n2)c1
**A:** 0

**Q:** Try the compound O=C(Nc1cccc(Oc2ccc3nccn3n2)c1)Nc1cccc(C(F)(F)F)c1
**A:** 0

**Q:** Next compound up: C[C@@H](Oc1cc(-n2cnc3ccc(-c4ccncc4)cc32)sc1C(N)=O)c1ccccc1Cl [GSK483724]
**A:** 0

**Q:** Record: Cc1ccc(CC(=O)N2CCc3cc(-c4cn(C)c5ncnc(N)c45)ccc32)cc1 [GSK2634758]
**A:** 0

**Q:** # iterate: FC(F)(F)c1cc(Br)cc(Nc2nccc(-c3cnn4ncccc34)n2)c1 [GW810578]
**A:** 99.3

**Q:** Note, next up: COC(=O)Nc1nc2cc(Oc3ccc(NC(=O)Nc4cc(C(F)(F)F)ccc4Cl)cc3)ccc2[nH]1.Cl [GW697465]
**A:** 6

**Q:** Param item: CN1CCN(CCNc2nc3cc(Oc4ccc(NC(=O)Nc5cc(C(F)(F)F)ccc5F)cc4)ccc3[nH]2)CC1.Cl.Cl [GW768504]
**A:** 4

**Q:** Also check Cn1ccc2ncnc(Oc3ccc(NC(=O)Nc4cnn(C(C)(C)C)c4)c(Cl)c3)c21
**A:** 5

====

Tested on: GRK3
Construct: gene ADRBK2
setup-conditions: concentration: 1 μM,replicates: in singlicate; n = 1
Each item that follows carries a reported %Inh.
Record the value in %, omitting the unit from your answer.

In the examples that follow, each entry is paired with its recorded %Inh.
INSERT INTO results (smi, recorded_endpoint, recorded_result) VALUES
  ('CN1CCN(CCNc2nc3cc(Oc4ccc(NC(=O)Nc5cc(C(F)(F)F)ccc5F)cc4)ccc3[nH]2)CC1.Cl.Cl', '%Inh', 0),
  ('CCN1CCN(CCCC(=O)Nc2n[nH]c3nc(-c4ccc(O)cc4)c(Br)cc23)CC1', '%Inh', 25);

**Q:** Notebook entry, GRK3 assay: %Inh of C[C@@H]1CNc2c(sc3ccc4nc(-c5ccc(O)cc5)ccc4c23)C(=O)N1 = ?
**A:** 0

**Q:** Input COc1cc2ncn(-c3cc(OCC4CCCCC4)c(C(N)=O)s3)c2cc1OC
**A:** 40

**Q:** Another compound: CN1CCN(CCCNc2nccc(-c3c(-c4ccc(F)cc4)nn4cc(C(N)=O)ccc34)n2)CC1
**A:** 0

**Q:** Another compound to check: COc1cccc(C2=C(Nc3cccc(Cl)c3)C(=O)NC2=O)c1
**A:** 22

**Q:** Okay, and C[C@@H]1CNc2c(sc3ccc4nc(-c5ccncc5)ccc4c23)C(=O)N1 ?
**A:** 0

**Q:** Another compound to check: COC(=O)Nc1nc2cc(Oc3ccc(NC(=O)Nc4cc(C(F)(F)F)ccc4Cl)cc3)ccc2[nH]1.Cl
**A:** 65

**Q:** Can you check CCCC(=O)Nc1n[nH]c2ncccc12 next?
**A:** 0

**Q:** Follow-up item: NC(=O)Nc1sc(-c2ccc(F)cc2)cc1C(N)=O
**A:** 0

**Q:** Repeat for the following compound: Cl.Nc1n[nH]c2cc(-c3ccccn3)ccc12
**A:** 0

====

Tested on: CAMK1
setup-conditions: concentration: 1 μM,replicates: in singlicate; n = 1
%Inh overview
Give a bare numeral; the unit % is implied.

Here are 6 compounds together with their reported answers.
INSERT INTO assay_data (compound, assay_target, recorded_result) VALUES
  ('O=c1[nH]cc(-c2ccc(O)cc2)c2sc(-c3ccncc3)cc12', 'CAMK1', 6),
  ('Cn1ccc2ncnc(Oc3ccc(NC(=O)Nc4cccc(C(F)(F)F)c4)c(Cl)c3)c21', 'CAMK1', 4),
  ('COc1cc(Nc2nccc(N3CCC(NC(=O)c4cccc(C#N)c4)C3)n2)cc(OC)c1OC (stereo not shown)', 'CAMK1', 3),
  ('CC(=O)c1c(-c2ccncc2)[nH]c(-c2ccncc2)c1C', 'CAMK1', 26),
  ('COc1cc2c(Nc3ccc(NC(=O)c4ccccc4)cc3)ncnc2cc1OCCCN1CCOCC1', 'CAMK1', 40),
  ('Cl.c1ccc(Oc2ccc(Nc3ccnc4cc(-c5ccc(CN6CCNCC6)o5)ccc34)cc2)nc1', 'CAMK1', 29);

**Q:** Look at this compound and give its reported %Inh. CCN1CCN(CCCC(=O)Nc2n[nH]c3nc(-c4ccc(O)cc4)c(Br)cc23)CC1
**A:** 0

**Q:** Can you handle COc1cccc(CNC(=O)NC2CCN(c3ccnc(Nc4cc(OC)c(OC)c(OC)c4)n3)C2)c1 (stereo not shown) next?
**A:** 35

====

System: CAMK1B
setup-conditions: concentration: 1 μM,replicates: in singlicate; n = 1
%Inh values by entry
Answer in %, number only, no unit symbol.

As a guide, the following entries are already answered.
INSERT INTO results (smi, recorded_result) VALUES
  ('COc1cc2nccc(Nc3ccc(Oc4ccccc4)cc3)c2cc1OC.Cl', 23),
  ('CN1CCN(CCCNc2nccc(-c3c(-c4ccc(F)cc4)nn4cc(C(N)=O)ccc34)n2)CC1', 0),
  ('Cn1cc(-c2cccc3c(N)c(C(N)=O)nnc23)cn1', 0),
  ('CCN1CCN(CCCC(=O)Nc2n[nH]c3nc(-c4ccc(O)cc4)c(Br)cc23)CC1', 65);

With those in mind, consider the next compound.
**Q:** # input compound: Nc1nccc(-c2ccc3c(N)n[nH]c3c2)n1 ; wanted: its %Inh
**A:** 10

====

%Inh reference
Test system: FGFR1
setup-conditions: concentration: 1 μM,replicates: in singlicate; n = 1

Example cases with answers are listed next.
INSERT INTO measurements (molecule, recorded_result) VALUES
  ('Cc1ccc2c(-c3ccnc(Nc4ccc(C(F)(F)F)cc4)n3)cnn2n1 [GW819776]', '5%'),
  ('COc1ccc(Nc2nccc(N3CCC(NC(=O)c4cccc(C#N)c4)C3)n2)cc1 (centres unmarked) [GSK1379730]', '13%'),
  ('Cc1ccc(Nc2ccnc(Nc3ccc4c(c3)CS(=O)(=O)C4)n2)cc1O.Cl [GW579362]', '84%'),
  ('COc1cc2nccc(Nc3ccc(Oc4ccccc4)cc3)c2cc1OC.Cl [GI261656]', '0%'),
  ('COc1cccc(CNC(=O)NC2CCN(c3ccnc(Nc4cc(OC)c(OC)c(OC)c4)n3)C2)c1 (centres unmarked) [GSK1379765]', '0%');

**Q:** Entry under review: Cn1ccc2ncnc(Oc3ccc(NC(=O)Nc4cccc(C(F)(F)F)c4)c(F)c3)c21 . Reported %Inh?
**A:** 0%

**Q:** And what about the molecule COc1cc2c(Nc3ccc(NC(=O)c4ccccc4)cc3)ncnc2cc1OCCCN1CCOCC1 [GSK301329] ?
**A:** 0%

**Q:** Now give it for Cc1n[nH]c2cc(Nc3ccnc(Nc4cccc(CN5CCOCC5)c4)n3)ccc12 [GW682569] too.
**A:** 15%

====

Attribute: %Inh
Test system: SBK1
setup-conditions: concentration: 1 μM,replicates: in singlicate; n = 1
Just the number in %, nothing appended.

Known results for compounds:
INSERT INTO results (compound, assay_target, recorded_result) VALUES
  ('O=C(Nc1cccc(Oc2ccc3nccn3n2)c1)Nc1cccc(C(F)(F)F)c1', 'SBK1', 0),
  ('O=C(NCC1CC1)c1ccc(-c2cc(C(=O)NC3CC3)ccc2F)cc1', 'SBK1', 4),
  ('COc1cccc(CNC(=O)NC2CCN(c3ccnc(Nc4cc(OC)c(OC)c(OC)c4)n3)C2)c1 (centres unmarked)', 'SBK1', 19);

**Q:** Notebook entry, SBK1 assay: %Inh of COc1cc2ncn(-c3cc(OCC4CCCCC4)c(C(N)=O)s3)c2cc1OC = ?
**A:** 22

**Q:** Next: Cc1ccc2c(-c3ccnc(Nc4ccc(C(F)(F)F)cc4)n3)cnn2n1
**A:** 8

**Q:** Entry to check: CN1CCN(CCNc2nc3cc(Oc4ccc(NC(=O)Nc5cc(C(F)(F)F)ccc5F)cc4)ccc3[nH]2)CC1.Cl.Cl
**A:** 0

**Q:** // same read-out, input: CN(c1cccc(CNc2nc(Nc3ccc4c(c3)CC(=O)N4)ncc2C(F)(F)F)c1)S(C)(=O)=O
**A:** 48

**Q:** // same read-out, input: Cl.Nc1n[nH]c2cc(-c3ccccn3)ccc12
**A:** 28
